Entry source: the supplement of paper PMC10567573

B1: ACSBG2 (parent)
chain: TPMTIPEFFRESVNRFGTYPALAS

- Variants of: B1
- Test name: protein stability index of a GFP-peptide fusion (GPS, HEK-293T) (PSI 1-6); higher = more stable;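 also: lentivirally expressed fusions sorted by FACS into six bins by GFP to DsRed ratio, PSI derived from sequencing read proportions per bin multiplied by bin number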
- Measurement parameters: c terminus: a fixed tail appended
Measured parameter: protein stability index

>>> test_result("F16G")
2.48
>>> test_result("S24I")
1.48
>>> test_result("P2A")
2
>>> test_result("T1Q")
2.44
>>> test_result("T18L")
2.31
>>> test_result("A23Y")
1.82
>>> test_result("T4Q")
2.13
>>> test_result("F9D")
3.36
>>> test_result("N14M")
2.39
>>> test_result("P20T")
1.48
>>> test_result("E11P")
1.72
>>> test_result("T18Q")
2.02
>>> test_result("I5M")
2.37
>>> test_result("Y19H")
2.77
>>> test_result("A23M")
1.97
>>> test_result("N14R")
2.01
>>> test_result("F16V")
2.64
>>> test_result("L22S")
3.04
>>> test_result("V13P")
2.43
>>> test_result("R10Y")
1.86
>>> test_result("E11N")
1.82
>>> test_result("E7K")
2.25
>>> test_result("F9K")
2.67
>>> test_result("S12K")
2.17
>>> test_result("A21V")
1.78
>>> test_result("P6S")
1.94
>>> test_result("A23Q")
2.69
>>> test_result("R10S")
2.45
>>> test_result("M3R")
2.61
>>> test_result("T4W")
2.19
>>> test_result("P2M")
2.55
>>> test_result("P20W")
2.11
>>> test_result("F16W")
2.16
>>> test_result("S12T")
2.02
>>> test_result("G17N")
2.34
>>> test_result("R10M")
1.63
>>> test_result("S12L")
2.01
>>> test_result("P2V")
1.98
>>> test_result("R10V")
1.54
>>> test_result("S24C")
2.03
>>> test_result("E11G")
1.89
>>> test_result("N14H")
2.05
>>> test_result("L22Q")
2.5
>>> test_result("G17L")
1.95
>>> test_result("T18E")
3.05
>>> test_result("Y19K")
2.8
>>> test_result("A21S")
2.31
>>> test_result("F16N")
3.41
>>> test_result("F8M")
2.35
>>> test_result("F9G")
3.05
>>> test_result("T1S")
2.13
>>> test_result("E7P")
2.24
>>> test_result("E11S")
2.15
>>> test_result("V13L")
2.09
>>> test_result("T4E")
2.52
>>> test_result("G17T")
1.91
>>> test_result("F9C")
2.17
>>> test_result("L22D")
3.19
>>> test_result("L22V")
2.02
>>> test_result("E7A")
2.26
>>> test_result("F16M")
3.39
>>> test_result("P6D")
1.76
>>> test_result("F9W")
1.92
>>> test_result("S24G")
2.18
>>> test_result("F8I")
2.42
>>> test_result("A21Y")
2.17
>>> test_result("A21G")
2.47
>>> test_result("G17P")
2.22
>>> test_result("N14W")
1.74
>>> test_result("A21E")
2.69
>>> test_result("T18C")
2.35
>>> test_result("T1M")
1.85
>>> test_result("V13F")
1.97
>>> test_result("T18M")
1.74
